Values were extracted from ChEMBL document CHEMBL4665802.

- experiment: Apparent clearance in rat at 5 mg/kg, iv by LC-MS/MS analysis
- Assay type: ADME, organism-based
- condition-context: in vivo

molecule	unit-of-measurement	clearance
COc1ccc(S(=O)(=O)NC(=O)CN(c2cccc3c2CCN3C(C(=O)NS(=O)(=O)c2ccc(C)cc2OC)c2cccc(OC)c2)S(=O)(=O)c2ccc(OC)cc2)cc1 (stereo unspecified)	mL/min/kg	1.83

---

- experiment: Metabolic stability in human liver microsome assessed as parent compound remaining at 1 uM preincubated for 5 mins followed by NADPH addition and measured after 45 mins by LC-MS/MS analysis
- Format: ADME
- condition-context: liver microsomes, time 50 min, read-out: Stabilty

molecule	remaining at 0.75 h, 1 µM / %
COc1cccc(C(C(=O)NS(=O)(=O)c2ccc(C)cc2OC)N2CCc3c2cccc3N(CC(=O)NS(=O)(=O)c2ccccc2)S(=O)(=O)c2c(C)cc(C)cc2C)c1 (stereo not drawn)	48.7
COc1ccc(S(=O)(=O)NC(=O)CN(c2cccc3c2CCN3C(C(=O)NS(=O)(=O)c2ccc(C)cc2OC)c2cccc(OC)c2)S(=O)(=O)c2ccc(OC)cc2)cc1 (stereo not drawn)	74.4
COc1ccc(S(=O)(=O)N(CC(=O)NS(=O)(=O)c2ccccc2)c2cccc3c2CCN3C(C(=O)NS(=O)(=O)c2ccc(C)cc2OC)c2cccc(OC)c2)cc1 (stereo not drawn)	85.7

---

- experiment: Permeability of the compound at pH 7.4 incubated for 4 hrs by PAMPA
- Type: ADME
- condition-context: read-out: permeability
Listed below: Papp at 4 h values for each entry.

molecule	unit-of-measurement	Papp at 4 h
COc1ccc(S(=O)(=O)N(CC(=O)O)c2ccc(N(CC(=O)O)S(=O)(=O)c3ccc(OC)cc3)c3ccccc23)cc1	×10⁻⁶ cm/s	0.19
COc1ccc(S(=O)(=O)NC(=O)CN(c2cccc3c2CCN3C(C(=O)NS(=O)(=O)c2ccc(C)cc2OC)c2cccc(OC)c2)S(=O)(=O)c2ccc(OC)cc2)cc1 (centres undefined)	×10⁻⁶ cm/s	5.27
COc1cccc(C(C(=O)NS(=O)(=O)c2ccc(C)cc2OC)N2CCc3c2cccc3N(CC(=O)NS(=O)(=O)c2ccccc2)S(=O)(=O)c2c(C)cc(C)cc2C)c1 (centres undefined)	×10⁻⁶ cm/s	3.79
COc1ccc(S(=O)(=O)N(CC(=O)NS(=O)(=O)c2ccccc2)c2cccc3c2CCN3C(C(=O)NS(=O)(=O)c2ccc(C)cc2OC)c2cccc(OC)c2)cc1 (centres undefined)	×10⁻⁶ cm/s	4.51

---

- experiment: AUC (0 to infinity) in rat at 5 mg/kg, iv by LC-MS/MS analysis
- Format: ADME, organism-based
- Design: time infinity, route intravenous, dose 5 mg/kg
- condition-context: in vivo
readout: AUC(0-inf) (µg·h/mL)

molecule	test-value
COc1ccc(S(=O)(=O)NC(=O)CN(c2cccc3c2CCN3C(C(=O)NS(=O)(=O)c2ccc(C)cc2OC)c2cccc(OC)c2)S(=O)(=O)c2ccc(OC)cc2)cc1 (stereo unspecified)	47

---

- experiment: Metabolic stability in human liver microsome assessed as half-life at 1 uM preincubated for 5 mins followed by NADPH addition and measured after 45 mins by LC-MS/MS analysis
- Assay type: ADME
- condition-context: liver microsomes
Some compounds, each annotated with its measured half-life at 1 µM.

compound	unit-of-measurement	half-life at 1 µM
COc1cccc(C(C(=O)NS(=O)(=O)c2ccc(C)cc2OC)N2CCc3c2cccc3N(CC(=O)NS(=O)(=O)c2ccccc2)S(=O)(=O)c2c(C)cc(C)cc2C)c1 (stereo not drawn)	h	0.733
COc1ccc(S(=O)(=O)NC(=O)CN(c2cccc3c2CCN3C(C(=O)NS(=O)(=O)c2ccc(C)cc2OC)c2cccc(OC)c2)S(=O)(=O)c2ccc(OC)cc2)cc1 (stereo not drawn)	h	2.52
COc1ccc(S(=O)(=O)N(CC(=O)NS(=O)(=O)c2ccccc2)c2cccc3c2CCN3C(C(=O)NS(=O)(=O)c2ccc(C)cc2OC)c2cccc(OC)c2)cc1 (stereo not drawn)	h	3.77

---

- experiment: MRT (0 to infinity) in rat at 5 mg/kg, iv by LC-MS/MS analysis
- Format: ADME, organism-based
- condition-context: in vivo

molecule	MRT inf (h)
COc1ccc(S(=O)(=O)NC(=O)CN(c2cccc3c2CCN3C(C(=O)NS(=O)(=O)c2ccc(C)cc2OC)c2cccc(OC)c2)S(=O)(=O)c2ccc(OC)cc2)cc1 (stereo unspecified)	1.1

---

- experiment: AUC (0 to t) in rat at 5 mg/kg, iv by LC-MS/MS analysis
- Format: ADME, organism-based
- Set-up: dose 5 mg/kg
- condition-context: in vivo

molecule	unit-of-measurement	AUC(0-t)
COc1ccc(S(=O)(=O)NC(=O)CN(c2cccc3c2CCN3C(C(=O)NS(=O)(=O)c2ccc(C)cc2OC)c2cccc(OC)c2)S(=O)(=O)c2ccc(OC)cc2)cc1 (stereo unspecified)	ng·h/mL	47000

---

- experiment: Intrinsic clearance in human liver microsome at 1 uM preincubated for 5 mins followed by NADPH addition and measured after 45 mins by LC-MS/MS analysis
- Type: ADME
- condition-context: microsomes, 0.75 h
List of CLH values.
readout: CLH (mL/min/kg)

compound	unit-of-measurement	test-value
COc1ccc(S(=O)(=O)NC(=O)CN(c2cccc3c2CCN3C(C(=O)NS(=O)(=O)c2ccc(C)cc2OC)c2cccc(OC)c2)S(=O)(=O)c2ccc(OC)cc2)cc1 (stereo not drawn)	mL/min/kg	11.4
COc1ccc(S(=O)(=O)N(CC(=O)NS(=O)(=O)c2ccccc2)c2cccc3c2CCN3C(C(=O)NS(=O)(=O)c2ccc(C)cc2OC)c2cccc(OC)c2)cc1 (stereo not drawn)	mL/min/kg	7.64
COc1cccc(C(C(=O)NS(=O)(=O)c2ccc(C)cc2OC)N2CCc3c2cccc3N(CC(=O)NS(=O)(=O)c2ccccc2)S(=O)(=O)c2c(C)cc(C)cc2C)c1 (stereo not drawn)	mL/min/kg	39.4

---

- assay-system: CYP2C19 (Homo sapiens, UniProt P33261)
- Sequence (P33261 whole entry): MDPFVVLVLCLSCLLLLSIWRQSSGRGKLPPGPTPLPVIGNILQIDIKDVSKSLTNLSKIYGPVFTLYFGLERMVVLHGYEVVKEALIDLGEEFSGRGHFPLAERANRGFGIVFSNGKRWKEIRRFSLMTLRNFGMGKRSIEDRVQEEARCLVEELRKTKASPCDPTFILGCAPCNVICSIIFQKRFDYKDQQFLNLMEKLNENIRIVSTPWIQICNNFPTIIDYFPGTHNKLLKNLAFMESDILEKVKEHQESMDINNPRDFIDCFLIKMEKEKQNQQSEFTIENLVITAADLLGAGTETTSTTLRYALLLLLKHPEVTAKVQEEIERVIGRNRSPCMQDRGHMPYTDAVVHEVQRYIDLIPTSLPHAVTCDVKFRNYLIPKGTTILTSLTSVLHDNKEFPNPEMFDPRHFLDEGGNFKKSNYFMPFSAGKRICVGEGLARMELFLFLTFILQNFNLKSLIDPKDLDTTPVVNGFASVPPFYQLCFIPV
- experiment: Inhibition of CYP2C19 (unknown origin) at 10 uM using omeprazole as substrate preincubated for 5 mins followed by NADPH addition and measured after 20 mins by LC-MS/MS analysis relative to control
- Assay type: ADME
- condition-context: probe omeprazole
readout: inhibition at 20 min, 10 µM (%)

molecule	unit-of-measurement	test-value
COc1ccc(S(=O)(=O)NC(=O)CN(c2cccc3c2CCN3C(C(=O)NS(=O)(=O)c2ccc(C)cc2OC)c2cccc(OC)c2)S(=O)(=O)c2ccc(OC)cc2)cc1 (stereo unspecified)	%	19.8

---

- assay-system: CYP2C9 (Homo sapiens, UniProt P11712)
- Sequence (P11712 whole entry): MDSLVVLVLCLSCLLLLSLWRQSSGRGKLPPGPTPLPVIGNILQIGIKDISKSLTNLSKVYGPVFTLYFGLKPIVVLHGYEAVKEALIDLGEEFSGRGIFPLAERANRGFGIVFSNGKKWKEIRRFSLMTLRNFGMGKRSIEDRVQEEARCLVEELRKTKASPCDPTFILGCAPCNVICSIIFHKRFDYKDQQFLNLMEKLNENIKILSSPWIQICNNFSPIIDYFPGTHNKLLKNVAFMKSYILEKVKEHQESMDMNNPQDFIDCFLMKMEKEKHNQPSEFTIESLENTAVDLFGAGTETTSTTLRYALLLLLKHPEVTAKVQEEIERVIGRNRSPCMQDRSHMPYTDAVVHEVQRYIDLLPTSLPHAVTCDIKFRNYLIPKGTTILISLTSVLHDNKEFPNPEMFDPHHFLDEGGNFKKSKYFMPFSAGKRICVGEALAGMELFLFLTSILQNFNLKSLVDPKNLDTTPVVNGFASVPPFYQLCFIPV
- experiment: Inhibition of CYP2C9 (unknown origin) at 10 uM using […] as substrate preincubated for 5 mins followed by NADPH addition and measured after 20 mins by LC-MS/MS analysis relative to control
- Assay type: ADME

molecule	assay-system	inhibition at 20 min, 10 µM [%]
COc1ccc(S(=O)(=O)NC(=O)CN(c2cccc3c2CCN3C(C(=O)NS(=O)(=O)c2ccc(C)cc2OC)c2cccc(OC)c2)S(=O)(=O)c2ccc(OC)cc2)cc1 (stereo unspecified)	CYP2C9 (Homo sapiens, UniProt P11712)	30.3
